Attribution: patent US20230295310A1

assay.target: human CD3 (human, UniProt P07766 23-207; P04234 22-171; P09693 23-182)
Sequence (P07766 23-207, chain 1 of 3): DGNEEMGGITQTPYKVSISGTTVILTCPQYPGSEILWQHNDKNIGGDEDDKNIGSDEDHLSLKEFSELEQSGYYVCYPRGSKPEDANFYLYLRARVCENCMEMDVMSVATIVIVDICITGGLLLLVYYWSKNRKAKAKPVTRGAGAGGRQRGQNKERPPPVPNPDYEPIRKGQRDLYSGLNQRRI
Sequence (P04234 22-171, chain 2 of 3): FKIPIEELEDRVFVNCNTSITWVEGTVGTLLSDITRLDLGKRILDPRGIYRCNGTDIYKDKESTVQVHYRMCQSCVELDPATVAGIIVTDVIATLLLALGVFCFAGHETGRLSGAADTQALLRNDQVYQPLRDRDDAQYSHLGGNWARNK
Sequence (P09693 23-182, chain 3 of 3): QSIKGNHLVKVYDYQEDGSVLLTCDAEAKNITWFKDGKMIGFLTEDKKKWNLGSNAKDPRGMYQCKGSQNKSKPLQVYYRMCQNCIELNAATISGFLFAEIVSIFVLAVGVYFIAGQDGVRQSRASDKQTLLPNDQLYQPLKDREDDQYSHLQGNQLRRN
protocol.details: cell-based or functional assay
Entries and their measured CD4 EC50 (nM); CD69/CD25 on human T cells, plate-coated antibody follow.
Give a bare numeral; the unit nM is implied.

Reference set, count: 2
[[record]]
binder = "mAb 50 (antibody, V domains shown) VH: QAQLVQSGSELKKPGASVKVSCKASGYTFTRHAMNWVRQAPGQGLEWMGWINTNTGNPTYAQGFTGRFVFSLDTSVTTAYLQISSLKAEDTAVYYCAREGDYDFWSGFFNFDYWGQGTLVTVSS VL: DIQMTQSPSSLSASVGDRVTITCRASQGIRNDLGWFQQKPGKAPTRLIYAASSLQSGVPSRFSGSGSGAEFTLTISSLQPEDFATYYCLQHNSYPRTFGQGTKVEIK"
units_text = "nM"
quantitative_result = 26.3

[[record]]
binder = "mAb 173 (antibody, V domains shown) VH: EVQLVESGGGLVQPGRSLRLSCAASGFTFDDYTMHWVRQVPGKGLEWVSDISWNSGSVGYADSVKGRFTISRDNAKNSLYLQMNSLRAEDTALYYCVKDSSGYGHYFHYYMDVWGKGTTVTVSS VL: DIQMTQSPSSLSASVGDRVTITCRASQSISNYLNWYQVKPGKAPKVLIYAASSLQSGVPSRFSGSGSGTDFTLTISSLQPEDFVSYYCHQSYNTPITFGQGTRLEIK"
units_text = "nM"
quantitative_result = 12.5


Proceeding to the next binder to report its CD4 EC50 (nM); CD69/CD25 on human T cells, plate-coated antibody.
Input: Record request: CD4 EC50 (nM); CD69/CD25 on human T cells, plate-coated antibody value, item mAb 171 (antibody, V domains shown) VH: EVQLVESGGGLVQPGRSLRLSCAASGFTFADYTMHWVRQAPGQGLEWVSGISWNSGSIDYADSVKGRFIISRDNAKKTLYLQMNSLRAEDTALYYCAKDSSGYGHYYFYYLDVWGKGTTVTVSS VL: EIVMTQSPATLSVSPGERATLSCRASQSVSSNLAWYQQKPGQAPRLLIYSTSTRATGIPARFSGSRSGTEFTLTISSLQSEDSAVYYCQQYNNWPHFGQGTRLEIK
Output: 6.86
